system: AG1523; assay: Inhibition of proliferation AG1523 (human fibroblast) cell line.; format: functional, cell-based
Below, each entry is listed alongside its reported pIC50.
# pIC50 is unitless: minus log10 of the molar concentration; print number only

Please review the following examples before continuing.
1. O=C(Nc1cccc2c1C(=O)c1c(-c3ccc(C(=O)NCCN4CCCCC4)s3)n[nH]c1-2)NN1CCOCC1	6.59
2. O=C(Nc1cccc2c1C(=O)c1c(-c3ccc(C(=O)NCCN4CCCC4)s3)n[nH]c1-2)NN1CCOCC1	6.17
3. CCOC(=O)c1ccc(-c2[nH]nc3c2C(=O)c2c(NC(=O)NN(C)C)cccc2-3)s1	5.55
4. COc1ccc(-c2[nH]nc3c2C(=O)c2c(NC(=O)NN(C)C)cccc2-3)s1	5.81
5. Cc1cc(-c2[nH]nc3c2C(=O)c2c(NC(=O)NN4CCOCC4)cccc2-3)c(C)s1	6.46

Please indicate pIC50 recorded for CN(C)NC(=O)Nc1cccc2c1C(=O)c1c(-c3csc(Cl)c3)n[nH]c1-2
6.21

Please indicate pIC50 recorded for CN(C)C1CCN(C(=O)c2ccc(-c3[nH]nc4c3C(=O)c3c(NC(=O)NN5CCOCC5)cccc3-4)s2)CC1
6.00

Please indicate pIC50 recorded for O=C(Nc1cccc2c1C(=O)c1c-2n[nH]c1-c1csc(Cl)c1)NN1CCOCC1
6.41

Please indicate pIC50 recorded for CN1CCN(C(=O)c2ccc(-c3[nH]nc4c3C(=O)c3c(NC(=O)NN5CCOCC5)cccc3-4)s2)CC1
6.31

Please indicate pIC50 recorded for CN1CCCN(C(=O)c2ccc(-c3[nH]nc4c3C(=O)c3c(NC(=O)NN5CCOCC5)cccc3-4)s2)CC1
7.20

Please indicate pIC50 recorded for CN(C)C1CCN(C(=O)c2ccc(-c3[nH]nc4c3C(=O)c3c(NC(=O)NN5CCOCC5)cccc3-4)s2)C1 (stereo not given)
6.48

Please indicate pIC50 recorded for Cc1cc(-c2n[nH]c3c2C(=O)c2c(NC(=O)NN(C)C)cccc2-3)c(C)s1
5.82

Please indicate pIC50 recorded for CN(C)NC(=O)Nc1cccc2c1C(=O)c1c(-c3cccs3)n[nH]c1-2
6.04

Please indicate pIC50 recorded for Cc1ccc(-c2n[nH]c3c2C(=O)c2c(NC(=O)NN(C)C)cccc2-3)s1
6.19

Please indicate pIC50 recorded for CN(C)NC(=O)Nc1cccc2c1C(=O)c1c(-c3ccsc3)n[nH]c1-2
6.22

Please indicate pIC50 recorded for Cc1ccc(-c2[nH]nc3c2C(=O)c2c(NC(=O)NN4CCOCC4)cccc2-3)s1
6.55

Please indicate pIC50 recorded for Cc1cc(-c2n[nH]c3c2C(=O)c2c(NC(=O)NN4CCN(C)CC4)cccc2-3)c(C)s1
6.69

----------
test system: AG1523; experiment: Inhibition of AG1523 (arrested) cell proliferation; type: functional, cell-based; details: Homo sapiens
parameter: IC50

Jot down IC50 (AG1523) of Cc1nc(C)c(-c2[nH]nc3c2C(=O)c2c(NC(=O)NN4CCN(C)CC4)cccc2-3)s1 .
> 21 µM

----------
biological target: Cyclin-dependent kinase 4/cyclin D1 (Homo sapiens, UniProt P11802); assay: Binding affinity for Cyclin-dependent kinase 4-cyclin D1
Sequence (P11802 whole entry): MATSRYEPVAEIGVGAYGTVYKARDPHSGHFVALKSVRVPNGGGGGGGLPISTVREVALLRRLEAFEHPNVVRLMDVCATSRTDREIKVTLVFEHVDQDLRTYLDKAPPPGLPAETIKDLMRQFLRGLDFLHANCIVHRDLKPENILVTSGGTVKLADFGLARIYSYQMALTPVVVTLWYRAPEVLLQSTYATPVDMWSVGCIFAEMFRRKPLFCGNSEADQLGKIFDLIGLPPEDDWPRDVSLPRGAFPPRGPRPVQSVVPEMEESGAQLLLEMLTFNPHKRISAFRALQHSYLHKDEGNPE
Sequence (P24385 whole entry, further chain): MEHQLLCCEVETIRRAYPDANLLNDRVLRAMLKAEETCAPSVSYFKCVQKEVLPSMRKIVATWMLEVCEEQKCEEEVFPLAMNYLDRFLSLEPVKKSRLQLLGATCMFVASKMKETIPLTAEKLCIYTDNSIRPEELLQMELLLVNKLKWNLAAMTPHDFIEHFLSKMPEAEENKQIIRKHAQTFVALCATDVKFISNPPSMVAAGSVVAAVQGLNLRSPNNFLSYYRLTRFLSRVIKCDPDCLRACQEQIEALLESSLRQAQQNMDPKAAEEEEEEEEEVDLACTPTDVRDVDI
parameter: pIC50
# pIC50 is unitless: minus log10 of the molar concentration; print number only

Please review the following examples before continuing.
1. O=C(Nc1cccc2c1C(=O)c1c(-c3ccc(C(=O)NCCN4CCOCC4)s3)n[nH]c1-2)NN1CCOCC1	7.07
2. CCOC(=O)c1ccc(-c2[nH]nc3c2C(=O)c2c(NC(=O)NN4CCN(C)CC4)cccc2-3)s1	7.52
3. CN(C)NC(=O)Nc1cccc2c1C(=O)c1c(-c3ccsc3)n[nH]c1-2	6.97
4. Cc1cc(-c2n[nH]c3c2C(=O)c2c(NC(=O)NN4CCN(C)CC4)cccc2-3)c(C)s1	7.05
5. CN1CCN(C(=O)c2ccc(-c3[nH]nc4c3C(=O)c3c(NC(=O)NN5CCOCC5)cccc3-4)s2)CC1	8.00

Jot down pIC50 (Cyclin-dependent kinase 4/cyclin D1 (Homo sapiens, UniProt P11802)) of Cc1ccc(-c2[nH]nc3c2C(=O)c2c(NC(=O)NN4CCOCC4)cccc2-3)s1 .
7.64

Jot down pIC50 (Cyclin-dependent kinase 4/cyclin D1 (Homo sapiens, UniProt P11802)) of CNC1CCN(C(=O)c2ccc(-c3[nH]nc4c3C(=O)c3c(NC(=O)NN5CCOCC5)cccc3-4)s2)C1 (centres undefined) .
8.30

Jot down pIC50 (Cyclin-dependent kinase 4/cyclin D1 (Homo sapiens, UniProt P11802)) of O=C(Nc1cccc2c1C(=O)c1c(-c3ccc(C(=O)N4CCNCC4)s3)n[nH]c1-2)NN1CCOCC1 .
8.40

Jot down pIC50 (Cyclin-dependent kinase 4/cyclin D1 (Homo sapiens, UniProt P11802)) of Cc1nc(C)c(-c2n[nH]c3c2C(=O)c2c(NC(=O)NN(C)C)cccc2-3)s1 .
6.82
